System: RXF 393 renal
Assay: NCI tumour cell line growth inhibition, 48 h
recorded-metric: TGI (µM)
Expressed in µM, but write only the number.

[[record]]
compound = "COC(=O)C1(Cc2ccc3c(c2)CCC3)Cc2ccc3c(c2C1)CCC3 (stereo not given)"
recorded_metric = "TGI"
readout_unit = "µM"
reading = 83.3

[[record]]
compound = "COc1cc2c3c(n(C)c(=O)c2cc1OC)-c1cc2c(cc1/C3=C\\C(N)CN)OCO2 (stereo not given)"
recorded_metric = "TGI"
readout_unit = "µM"
reading = 3.38

[[record]]
compound = "O=C1OCC/C1=C/c1ccc(N=Nc2c(O)ccc3ccccc23)cc1"
recorded_metric = "TGI"
readout_unit = "µM"
reading = 36.8


Proceeding to the next compound to report its TGI.
What value of measured TGI is listed for c1ccc2cc(CNCCOCCOCCNCc3ccc4ccccc4c3)ccc2c1 ? 3.52
